- Test system: E. coli 0111:B4 LPS
- Type: biochemical, Escherichia coli
Ends that are not written are not given here.
value.kind: LPS neutralization Ratio (treatment/NTC)

substance="KKLFKKILKYL-NH2 [BP100]" measured=0,34
substance="YVKLWRMIKFIR-NH2 [YW12D, YVKLWRMIKFIR-NH2, reference compound]" measured=0,21
substance="KKlFKKILKYL-NH2 [BP144]" measured=1,07
substance="KKVVFWVKFk-NH2 [BP442]" measured=0,76
substance="RVQGRWKVRASFFK-NH2 [LBP-14, RVQGRWKVRASFFK-NH2, reference compound]" measured=0,23
substance="KKLFKKILKVL-NH2 [BP015]" measured=1,10
substance="c(LLKKKWKKLQ) (cyclic) [BPC098W]" measured=0,83
substance="KKLFKKILKFL-NH2 [BP076]" measured=0,36
substance="KkLFKKILKYL-NH2 [BP145]" measured=0,76
substance="FKLFKKILKVL-NH2 [BP013]" measured=1,13
substance="NIKISGKWKAQKRFLK-NH2 [BPI(84-99), NIKISGKWKAQKRFLK-NH2, reference compound]" measured=0,29
substance="Ac-LKLFKKILKVL-NH2 [BP022]" measured=0,61
substance="KKLfKKILKYL-NH2 [BP143]" measured=0,70
substance="KKLFKKILKKL-NH2 [BP016]" measured=1,13

###

- System: tobacco leaves
- study.conditions: 150 µM; after 48 h
Square brackets hold non-standard residues; d marks the D form. Peptide text beside a SMILES is read from it. * marks the point of attachment. Butyryl = CCCC(=O)*
Lab note: compare Phytotoxicity: diameter of the lesion with 6 mm, writing Met if less and Not met if equal or more.

molecule=CCCC(=O)NCCCC[C@H](NC(=O)[C@H](CCCCN)NC(=O)[C@H](CC(C)C)NC(=O)[C@@H](NC(=O)[C@H](CCCCN)NC(=O)[C@H](CCCCN)NC(=O)[C@H](Cc1ccccc1)NC(=O)[C@H](CC(C)C)NC(=O)[C@H](CCCCN)NC(=O)[C@H](CCCCN)NC(C)=O)[C@@H](C)CC)C(=O)N[C@@H](CC(C)C)C(N)=O group="Not met"
molecule=CCCC(=O)NCCCC[C@H](NC(=O)[C@H](CCCCN)NC(=O)[C@H](CC(C)C)NC(=O)[C@@H](NC(=O)[C@H](CCCCN)NC(=O)[C@H](CCCCN)NC(=O)[C@@H](Cc1ccccc1)NC(=O)[C@H](CC(C)C)NC(=O)[C@H](CCCCN)NC(=O)[C@H](CCCCN)NC(C)=O)[C@@H](C)CC)C(=O)N[C@@H](CC(C)C)C(N)=O group=Met
molecule=CCCCCCCCCCCC(=O)NCCCC[C@H](NC(=O)[C@H](CCCCN)NC(=O)[C@H](CCCCN)NC(C)=O)C(=O)N[C@H](Cc1ccccc1)C(=O)N[C@@H](CCCCN)C(=O)N[C@@H](CCCCN)C(=O)N[C@H](C(=O)N[C@@H](CC(C)C)C(=O)N[C@@H](CCCCN)C(=O)N[C@@H](Cc1ccc(O)cc1)C(=O)N[C@@H](CC(C)C)C(N)=O)[C@@H](C)CC group="Not met"
molecule=CCCC(=O)NCCCC[C@H](NC(=O)[C@H](CCCCN)NC(=O)[C@@H](Cc1ccccc1)NC(=O)[C@H](CC(C)C)NC(=O)[C@H](CCCCN)NC(=O)[C@H](CCCCN)NC(C)=O)C(=O)N[C@H](C(=O)N[C@@H](CC(C)C)C(=O)N[C@@H](CCCCN)C(=O)N[C@@H](Cc1ccc(O)cc1)C(=O)N[C@@H](CC(C)C)C(N)=O)[C@@H](C)CC group=Met
molecule="CCCC(=O)NCCCC[C@H](NC(=O)[C@H](Cc1ccc(O)cc1)NC(=O)[C@H](CCCCN)NC(=O)[C@H](CC(C)C)NC(=O)[C@@H](NC(=O)[C@H](CCCCN)NC(=O)[C@H](CCCCN)NC(=O)[C@@H](Cc1ccccc1)NC(=O)[C@H](CC(C)C)NC(=O)[C@H](CCCCN)NC(=O)[C@H](CCCCN)NC(C)=O)[C@@H](C)CC)C(N)=O [BP496, Ac-KKLfKKILKYK(COC3H7)-NH2] (Ac-KKL[dF]KKILKYK(Butyryl)-NH2)" group=Met
molecule=CCCC(=O)NCCCC[C@H](NC(=O)[C@H](CC(C)C)NC(=O)[C@@H](NC(=O)[C@H](CCCCN)NC(=O)[C@H](CCCCN)NC(=O)[C@@H](Cc1ccccc1)NC(=O)[C@H](CC(C)C)NC(=O)[C@H](CCCCN)NC(=O)[C@H](CCCCN)NC(C)=O)[C@@H](C)CC)C(=O)N[C@@H](Cc1ccc(O)cc1)C(=O)N[C@@H](CC(C)C)C(N)=O group="Not met"
molecule=CCCC(=O)N[C@@H](CCCCN)C(=O)N[C@@H](CCCCN)C(=O)N[C@@H](CC(C)C)C(=O)N[C@H](Cc1ccccc1)C(=O)N[C@@H](CCCCN)C(=O)N[C@@H](CCCCN)C(=O)N[C@H](C(=O)N[C@@H](CC(C)C)C(=O)N[C@@H](CCCCN)C(=O)N[C@@H](Cc1ccc(O)cc1)C(=O)N[C@@H](CC(C)C)C(N)=O)[C@@H](C)CC group=Met

###

- Tested on: E. coli 0111:B4 LPS
- Type: biochemical, Escherichia coli
Square brackets hold non-standard residues; d marks the D form. Peptide text beside a SMILES is read from it. * marks the point of attachment. Butyryl = CCCC(=O)*
value.kind: LPS neutralization Ratio (treatment/NTC)

compound="CCCC(=O)NCCCC[C@@H](NC(=O)[C@H](CC(C)C)NC(=O)[C@H](CCCCN)NC(=O)[C@H](CCCCN)NC(C)=O)C(=O)N[C@@H](CCCCN)C(=O)N[C@@H](CCCCN)C(=O)N[C@H](C(=O)N[C@@H](CC(C)C)C(=O)N[C@@H](CCCCN)C(=O)N[C@@H](Cc1ccc(O)cc1)C(=O)N[C@@H](CC(C)C)C(N)=O)[C@@H](C)CC [BP550, Ac-KKLk(COC3H7)KKILKYL-NH2]" measured=1,09
compound="CCCCCC(=O)NCCCC[C@H](NC(=O)[C@H](Cc1ccc(O)cc1)NC(=O)[C@H](CCCCN)NC(=O)[C@H](CC(C)C)NC(=O)[C@@H](NC(=O)[C@H](CCCCN)NC(=O)[C@H](CCCCN)NC(=O)[C@@H](Cc1ccccc1)NC(=O)[C@H](CC(C)C)NC(=O)[C@H](CCCCN)NC(=O)[C@H](CCCCN)NC(C)=O)[C@@H](C)CC)C(N)=O [BP495, Ac-KKLfKKILKYK(COC5H11)-NH2]" measured=0,55
compound="CCCCCC(=O)NCCCC[C@H](NC(=O)[C@H](CCCCN)NC(=O)[C@H](CCCCN)NC(=O)[C@@H](Cc1ccccc1)NC(=O)[C@H](CC(C)C)NC(=O)[C@H](CCCCN)NC(=O)[C@H](CCCCN)NC(C)=O)C(=O)N[C@@H](CC(C)C)C(=O)N[C@@H](CCCCN)C(=O)N[C@@H](Cc1ccc(O)cc1)C(=O)N[C@@H](CC(C)C)C(N)=O [BP494, Ac-KKLfKKK(COC5H11)LKYL-NH2]" measured=0,51
compound="CCCC(=O)NCCCC[C@@H](NC(=O)[C@H](CC(C)C)NC(=O)[C@H](CCCCN)NC(=O)[C@H](CCCCN)NC(C)=O)C(=O)N[C@@H](CCCCN)C(=O)N[C@@H](CCCCN)C(=O)N[C@H](C(=O)N[C@@H](CC(C)C)C(=O)N[C@H](C(=O)N[C@@H](Cc1ccc(O)cc1)C(=O)N[C@@H](CC(C)C)C(N)=O)[C@@H](C)CC)[C@@H](C)CC [BP547, Ac-KKLk(COC3H7)KKILIYL-NH2]" measured=0,99
compound="CCCC(=O)NCCCC[C@H](NC(=O)[C@H](CCCCN)NC(=O)[C@H](CCCCN)NC(C)=O)C(=O)N[C@H](Cc1ccccc1)C(=O)N[C@@H](CCCCN)C(=O)N[C@@H](CCCCN)C(=O)N[C@H](C(=O)N[C@@H](CC(C)C)C(=O)N[C@@H](CCCCN)C(=O)N[C@@H](Cc1ccc(O)cc1)C(=O)N[C@@H](CC(C)C)C(N)=O)[C@@H](C)CC [BP549, Ac-KKK(COC3H7)fKKILKYL-NH2]" measured=1,10
compound="CCCC(=O)NCCCC[C@H](NC(=O)[C@H](CC(C)C)NC(=O)[C@@H](NC(=O)[C@H](CCCCN)NC(=O)[C@H](CCCCN)NC(=O)[C@@H](Cc1ccccc1)NC(=O)[C@H](CC(C)C)NC(=O)[C@H](CCCCN)NC(=O)[C@H](CCCCN)NC(C)=O)[C@@H](C)CC)C(=O)N[C@@H](Cc1ccc(O)cc1)C(=O)N[C@@H](CC(C)C)C(N)=O [BP499, Ac-KKLfKKILK(COC3H7)YL-NH2]" measured=0,34
compound="CCCC(=O)NCCCC[C@H](NC(=O)[C@@H](Cc1ccccc1)NC(=O)[C@H](CC(C)C)NC(=O)[C@H](CCCCN)NC(=O)[C@H](CCCCN)NC(C)=O)C(=O)N[C@@H](CCCCN)C(=O)N[C@H](C(=O)N[C@@H](CC(C)C)C(=O)N[C@@H](CCCCN)C(=O)N[C@@H](Cc1ccc(O)cc1)C(=O)N[C@@H](CC(C)C)C(N)=O)[C@@H](C)CC [BP498, Ac-KKLfK(COC3H7)KILKYL-NH2]" measured=0,40
compound="CCCC(=O)NCCCC[C@H](NC(=O)[C@H](CCCCN)NC(=O)[C@H](CCCCN)NC(C)=O)C(=O)N[C@H](Cc1ccccc1)C(=O)N[C@@H](CCCCN)C(=O)N[C@@H](CCCCN)C(=O)N[C@@H](CCCCN)C(=O)N[C@@H](CC(C)C)C(=O)N[C@@H](CCCCN)C(=O)N[C@@H](Cc1ccc(O)cc1)C(=O)N[C@@H](CC(C)C)C(N)=O [BP546, Ac-KKK(COC3H7)fKKKLKYL-NH2] (Ac-KKK(Butyryl)[dF]KKKLKYL-NH2)" measured=0,73
compound="CCCC(=O)NCCCC[C@H](NC(=O)[C@H](CCCCN)NC(=O)[C@H](CC(C)C)NC(=O)[C@@H](NC(=O)[C@H](CCCCN)NC(=O)[C@H](CCCCN)NC(=O)[C@H](Cc1c[nH]cn1)NC(=O)[C@H](CC(C)C)NC(=O)[C@H](CCCCN)NC(=O)[C@H](CCCCN)NC(C)=O)[C@@H](C)CC)C(=O)N[C@@H](CC(C)C)C(N)=O [BP501, Ac-KKLHKKILKK(COC3H7)L-NH2] (Ac-KKLHKKILKK(Butyryl)L-NH2)" measured=0,71

Source of measurements: paper PMC12366332
